Measured values drawn from ChEMBL document CHEMBL1133455 for this set.

biological target: 5-hydroxytryptamine receptor 2A (Rattus norvegicus, UniProt P14842); test: In vitro binding affinity at 5-hydroxytryptamine 2A receptor by displacement of [3H]ketanserin from rat cortex
Sequence (P14842 whole entry): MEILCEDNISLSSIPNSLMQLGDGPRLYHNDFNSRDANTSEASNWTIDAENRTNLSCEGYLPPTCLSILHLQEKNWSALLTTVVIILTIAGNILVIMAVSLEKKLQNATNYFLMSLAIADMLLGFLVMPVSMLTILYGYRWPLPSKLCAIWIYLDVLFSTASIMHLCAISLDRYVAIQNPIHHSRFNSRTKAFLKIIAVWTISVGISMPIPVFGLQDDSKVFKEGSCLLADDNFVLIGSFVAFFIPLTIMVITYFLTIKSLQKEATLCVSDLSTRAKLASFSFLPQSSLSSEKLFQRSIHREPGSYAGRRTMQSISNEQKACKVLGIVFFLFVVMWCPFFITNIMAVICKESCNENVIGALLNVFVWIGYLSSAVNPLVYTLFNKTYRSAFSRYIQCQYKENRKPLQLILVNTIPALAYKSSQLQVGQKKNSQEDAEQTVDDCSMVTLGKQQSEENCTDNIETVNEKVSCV
Measure name: Ki

Would you please look over these solved cases?
CCCN(C(C)C)[C@@H]1COc2cccc(C(=O)NC(C)C)c2C1: > 10 µM
CCCN(CC(C)C)[C@H]1COc2cccc(C(=O)NC)c2C1: > 50 µM
CCCN(C(C)C)[C@H]1COc2cccc(C(=O)NC(C)C)c2C1 [EBALZOTAN]: > 10 µM

q: Give Ki for the following compound: CCCN[C@H]1COc2cccc(C(N)=O)c2C1
a: > 1 µM

q: Report Ki for CCN(C(C)C)[C@H]1COc2cccc(C(=O)NC(C)C)c2C1
a: > 1 µM
